# Test system: Avena fatua
# procedure summary: Post-emergence herbicidal action, AVEFA
# Assay type: in vivo
# Set-up: key: % herbicidal action vs untreated; 100 = plants died, 0 = like control
# condition parameters: post-emergence, dosage 80 g/ha
outcome measure: herbicidal action AVEFA (%)
# number only, unit % dropped from output

### Prompt May I ask what herbicidal action AVEFA has been recorded for CCSCc1c(C(F)(F)F)ccc(C(=O)Nc2nnnn2C)c1C ?
### Response 100

### Prompt Quick one: herbicidal action AVEFA of Cn1nnnc1NC(=O)c1ccc(C(F)(F)F)c(C[S+](C)[O-])c1Cl (racemic) ?
### Response 100

### Prompt Form field: reported herbicidal action AVEFA of CCCn1nnnc1NC(=O)c1ccc(C(F)(F)F)c(CSCC2CC2)c1Cl
### Response 100

### Prompt Form field: reported herbicidal action AVEFA of CSCc1c(C(F)(F)F)ccc(C(=O)Nc2nnnn2C)c1Cl
### Response 90

### Prompt // returns reported herbicidal action AVEFA for input CCn1nnnc1NC(=O)c1ccc(C(F)(F)F)c(CSC)c1SC
### Response 90

### Prompt What value of herbicidal action AVEFA has been recorded for this entry: CCCn1nnnc1NC(=O)c1ccc(C(F)(F)F)c(C[S+](C)[O-])c1Cl (stereo not drawn)
### Response 100

### Prompt Please report the recorded herbicidal action AVEFA for COCCSCc1c(C(F)(F)F)ccc(C(=O)Nc2nnnn2C)c1Cl .
### Response 100

### Prompt Given the compound CCCn1nnnc1NC(=O)c1ccc(C(F)(F)F)c(C[S+](C)[O-])c1Br (stereo not drawn) , what is its reported herbicidal action AVEFA?
### Response 100

### Prompt Look up herbicidal action AVEFA: CCSCc1c(C(F)(F)F)ccc(C(=O)Nc2nnnn2CC)c1C
### Response 100

###

# Tested on: Echinochloa crus-galli
# procedure summary: Pre-emergence herbicidal action, ECHCG
# Assay type: in vivo
# condition parameters: dosage 320 g/ha, scored visually after 3 weeks vs untreated controls (100% = plants have died)
outcome measure: herbicidal activity ECHCG (%)
Number only, in %; omit the unit.

### Prompt Look at this compound and give its reported herbicidal activity ECHCG. CCn1nnnc1NC(=O)c1ccc(C(F)(F)F)c(CSCC(F)(F)F)c1Cl
### Response 100

### Prompt Sample CCn1nnnc1NC(=O)c1ccc(C(F)(F)F)c(CS(=O)(=O)CC)c1Br — what was its herbicidal activity ECHCG?
### Response 100

### Prompt Return reported herbicidal activity ECHCG; argument: CCCn1nnnc1NC(=O)c1ccc(C(F)(F)F)c(CSCC2CC2)c1Cl
### Response 90

### Prompt GET /values?readout=herbicidal activity ECHCG&item= CCCn1nnnc1NC(=O)c1ccc(C(F)(F)F)c(C[S+](C)[O-])c1SC (stereo not shown)
### Response 100

###

Provide the recorded Herbicidal action against AMARE for the entries that follow.
# Test system: Amaranthus retroflexus
# procedure summary: Post-emergence herbicidal action, AMARE
# Format: in vivo
# Set-up: key: % herbicidal action vs untreated; 100 = plants died, 0 = like control
# condition parameters: post-emergence, dosage 80 g/ha
Just the number, please, no unit after it.

### Prompt Form field: reported Herbicidal action against AMARE of CCn1nnnc1NC(=O)c1ccc(I)c(CSC)c1Cl [Example 2-362]
### Response 100

### Prompt Which Herbicidal action against AMARE is listed for COc1c(C(=O)Nc2nnnn2C)ccc(Cl)c1CSC [Example 1-570] ?
### Response 90

### Prompt If you can, please state the reported Herbicidal action against AMARE value of CCn1nnnc1NC(=O)c1ccc(S(C)(=O)=O)c(CS(C)(=O)=O)c1Cl [Example 2-280] .
### Response 90

### Prompt Which Herbicidal action against AMARE value is on record for Cc1c(C(=O)Nc2nnnn2C)ccc(S(C)(=O)=O)c1C[S+](C)[O-] (centres unmarked) [Example 1-38] ?
### Response 100

### Prompt Please look up its Herbicidal action against AMARE: CCCn1nnnc1NC(=O)c1ccc(C(F)F)c(C[S+](C)[O-])c1C (centres unmarked) [Example 3-108]
### Response 80

### Prompt Which Herbicidal action against AMARE reading was recorded for the compound CSCc1c(S(C)(=O)=O)ccc(C(=O)Nc2nnnn2C)c1Cl [Example 1-278] ?
### Response 100

### Prompt Quick one: Herbicidal action against AMARE for CCCn1nnnc1NC(=O)c1ccc(S(C)(=O)=O)c(C[S+](C)[O-])c1C (centres unmarked) [Example 3-38] ?
### Response 100

### Prompt I am curious: what Herbicidal action against AMARE value has been reported for COc1c(C(=O)Nc2nnnn2C)ccc(Cl)c1CS(C)(=O)=O [Example 1-572] ?
### Response 90

### Prompt Give the measured Herbicidal action against AMARE of CCn1nnnc1NC(=O)c1ccc(C)c(CS(C)(=O)=O)c1Cl [Example 2-289] .
### Response 100

### Prompt # lookup: Herbicidal action against AMARE of Cn1nnnc1NC(=O)c1ccc(S(C)(=O)=O)c(CS(C)(=O)=O)c1Cl [Example 1-280]
### Response 90

### Prompt So what's the measured Herbicidal action against AMARE for this one? Cn1nnnc1NC(=O)c1ccc(C(F)(F)F)c(CS(=O)(=O)CC(F)(F)F)c1Cl [Example 1-313]
### Response 90
